Entry source: paper PMC11944670

# ASSAY_COMMENT: in vivo
# Parameters: species or system mice
# MEASUREMENT_SETUP: male, SCID, mouse, iv, 730 kBq, total radioactivity, Biodistribution, Blood
Residues, ends and D or L forms follow the SMILES beside them. *: point of attachment. DOTA = O=C(O)CN1CCN(CC(=O)O)CCN(CC(=O)*)CCN(CC(=O)O)CC1; X1 = Cc1ccc(CCCC(=O)NCCOCCOCCOCCOCC(=O)*)cc1; βAla = NCCC(=O)O
MEASUREMENT_LABEL: tissue uptake at 48 h (%ID/g)
Give your result in %ID/g as a bare value.

[Q] Tell us which tissue uptake at 48 h value is on record for CC[C@H](C)[C@H](NC(=O)[C@H](Cc1ccc(O)cc1)NC(=O)[C@@H]1CCCN1C(=O)[C@H](CCCNC(=N)N)NC(=O)[C@H](CCCNC(=N)N)NC(=O)[C@H](CCCCNC(=O)COCCOCCOCCOCCNC(=O)CCCc1ccc(C)cc1)NC(=O)CCNC(=O)CCNC(=O)CCNC(=O)CN1CCN(CC(=O)O)CCN(CC(=O)O)CCN(CC(=O)O)CC1)C(=O)N[C@@H](CC(C)C)C(=O)O [[^177Lu]Lu-DT14D, metal not drawn] ({DOTA-βAla-βAla-βAla}-K(X1)RRPYIL-OH)
[A] 0.05

----------
# ASSAY_COMMENT: in vivo
# Parameters: species or system mice
# MEASUREMENT_SETUP: male, SCID, mouse, iv, total radioactivity, Biodistribution, Spleen
Residues, ends and D or L forms follow the SMILES beside them. *: point of attachment. DOTA = O=C(O)CN1CCN(CC(=O)O)CCN(CC(=O)*)CCN(CC(=O)O)CC1; X1 = Cc1ccc(CCCC(=O)NCCOCCOCCOCCOCC(=O)*)cc1; βAla = NCCC(=O)O
MEASUREMENT_LABEL: tissue uptake at 1 h (%ID/g)
Numbers only; they are read as %ID/g.

[Q] Recall and state the measured tissue uptake at 1 h for CC[C@H](C)[C@H](NC(=O)[C@H](Cc1ccc(O)cc1)NC(=O)[C@@H]1CCCN1C(=O)[C@H](CCCNC(=N)N)NC(=O)[C@H](CCCNC(=N)N)NC(=O)[C@H](CCCCNC(=O)COCCOCCOCCOCCNC(=O)CCCc1ccc(C)cc1)NC(=O)CCNC(=O)CCNC(=O)CCNC(=O)CN1CCN(CC(=O)O)CCN(CC(=O)O)CCN(CC(=O)O)CC1)C(=O)N[C@@H](CC(C)C)C(=O)O [[^67Ga]Ga-DT14D, metal not drawn] ({DOTA-βAla-βAla-βAla}-K(X1)RRPYIL-OH) .
[A] 2.86

----------
# ASSAY_COMMENT: in vivo
# Design: species or system mice
# MEASUREMENT_SETUP: male, SCID, mouse, iv, total radioactivity, Biodistribution, Stomach
Residues, ends and D or L forms follow the SMILES beside them. *: point of attachment. DOTA = O=C(O)CN1CCN(CC(=O)O)CCN(CC(=O)*)CCN(CC(=O)O)CC1; X1 = Cc1ccc(CCCC(=O)NCCOCCOCCOCCOCC(=O)*)cc1; βAla = NCCC(=O)O
MEASUREMENT_LABEL: tissue uptake at 1 h (%ID/g)
Express your answer in %ID/g, writing the number without its unit.

[Q] Given CC[C@H](C)[C@H](NC(=O)[C@H](Cc1ccc(O)cc1)NC(=O)[C@@H]1CCCN1C(=O)[C@H](CCCNC(=N)N)NC(=O)[C@H](CCCNC(=N)N)NC(=O)[C@H](CCCCNC(=O)COCCOCCOCCOCCNC(=O)CCCc1ccc(C)cc1)NC(=O)CCNC(=O)CCNC(=O)CCNC(=O)CN1CCN(CC(=O)O)CCN(CC(=O)O)CCN(CC(=O)O)CC1)C(=O)N[C@@H](CC(C)C)C(=O)O [[^67Ga]Ga-DT14D, metal not drawn] ({DOTA-βAla-βAla-βAla}-K(X1)RRPYIL-OH) , respond with its tissue uptake at 1 h.
[A] 0.97

----------
# ASSAY_COMMENT: in vivo
# Parameters: species or system mice
# MEASUREMENT_SETUP: male, SCID, mouse, iv, total radioactivity, Biodistribution, Pancreas
Residues, ends and D or L forms follow the SMILES beside them. *: point of attachment. DOTA = O=C(O)CN1CCN(CC(=O)O)CCN(CC(=O)*)CCN(CC(=O)O)CC1; X1 = Cc1ccc(CCCC(=O)NCCOCCOCCOCCOCC(=O)*)cc1; βAla = NCCC(=O)O
MEASUREMENT_LABEL: tissue uptake at 1 h (%ID/g)
Numeric answer only, unit %ID/g assumed.

[Q] Let me know recorded tissue uptake at 1 h for CC[C@H](C)[C@H](NC(=O)[C@H](Cc1ccc(O)cc1)NC(=O)[C@@H]1CCCN1C(=O)[C@H](CCCNC(=N)N)NC(=O)[C@H](CCCNC(=N)N)NC(=O)[C@H](CCCCNC(=O)COCCOCCOCCOCCNC(=O)CCCc1ccc(C)cc1)NC(=O)CCNC(=O)CCNC(=O)CCNC(=O)CN1CCN(CC(=O)O)CCN(CC(=O)O)CCN(CC(=O)O)CC1)C(=O)N[C@@H](CC(C)C)C(=O)O [[^67Ga]Ga-DT14D, metal not drawn] ({DOTA-βAla-βAla-βAla}-K(X1)RRPYIL-OH) , thanks.
[A] 1.41

----------
# ASSAY_COMMENT: in vivo
# Parameters: species or system mice
# MEASUREMENT_SETUP: male, SCID, mouse, iv, total radioactivity, Biodistribution, Muscle
Residues, ends and D or L forms follow the SMILES beside them. *: point of attachment. DOTA = O=C(O)CN1CCN(CC(=O)O)CCN(CC(=O)*)CCN(CC(=O)O)CC1; X1 = Cc1ccc(CCCC(=O)NCCOCCOCCOCCOCC(=O)*)cc1; βAla = NCCC(=O)O
MEASUREMENT_LABEL: tissue uptake at 1 h (%ID/g)
API: value field is a number in %ID/g; no unit string.

[Q] Give me measured tissue uptake at 1 h, please, for this compound: CC[C@H](C)[C@H](NC(=O)[C@H](Cc1ccc(O)cc1)NC(=O)[C@@H]1CCCN1C(=O)[C@H](CCCNC(=N)N)NC(=O)[C@H](CCCNC(=N)N)NC(=O)[C@H](CCCCNC(=O)COCCOCCOCCOCCNC(=O)CCCc1ccc(C)cc1)NC(=O)CCNC(=O)CCNC(=O)CCNC(=O)CN1CCN(CC(=O)O)CCN(CC(=O)O)CCN(CC(=O)O)CC1)C(=O)N[C@@H](CC(C)C)C(=O)O [[^67Ga]Ga-DT14D, metal not drawn] ({DOTA-βAla-βAla-βAla}-K(X1)RRPYIL-OH)
[A] 1.14

----------
# ASSAY_COMMENT: in vivo
# Parameters: species or system mice
# MEASUREMENT_SETUP: male, SCID, mouse, iv, 730 kBq, total radioactivity, Biodistribution, Femur
Residues, ends and D or L forms follow the SMILES beside them. *: point of attachment. DOTA = O=C(O)CN1CCN(CC(=O)O)CCN(CC(=O)*)CCN(CC(=O)O)CC1; X1 = Cc1ccc(CCCC(=O)NCCOCCOCCOCCOCC(=O)*)cc1; βAla = NCCC(=O)O
MEASUREMENT_LABEL: tissue uptake at 48 h

[Q] Quick one: give measured tissue uptake at 48 h for CC[C@H](C)[C@H](NC(=O)[C@H](Cc1ccc(O)cc1)NC(=O)[C@@H]1CCCN1C(=O)[C@H](CCCNC(=N)N)NC(=O)[C@H](CCCNC(=N)N)NC(=O)[C@H](CCCCNC(=O)COCCOCCOCCOCCNC(=O)CCCc1ccc(C)cc1)NC(=O)CCNC(=O)CCNC(=O)CCNC(=O)CN1CCN(CC(=O)O)CCN(CC(=O)O)CCN(CC(=O)O)CC1)C(=O)N[C@@H](CC(C)C)C(=O)O [[^177Lu]Lu-DT14D, metal not drawn] ({DOTA-βAla-βAla-βAla}-K(X1)RRPYIL-OH)
[A] 0.38 %ID/g

----------
# ASSAY_COMMENT: in vivo
# Design: species or system mice
# MEASUREMENT_SETUP: male, SCID, mouse, iv, 730 kBq, total radioactivity, Tumor/Intestines ratio
Residues, ends and D or L forms follow the SMILES beside them. *: point of attachment. DOTA = O=C(O)CN1CCN(CC(=O)O)CCN(CC(=O)*)CCN(CC(=O)O)CC1; X1 = Cc1ccc(CCCC(=O)NCCOCCOCCOCCOCC(=O)*)cc1; βAla = NCCC(=O)O
MEASUREMENT_LABEL: tissue to tissue ratio at 72 h
Returns: the value as a bare number; no unit string appended.

[Q] Let me know recorded tissue to tissue ratio at 72 h for CC[C@H](C)[C@H](NC(=O)[C@H](Cc1ccc(O)cc1)NC(=O)[C@@H]1CCCN1C(=O)[C@H](CCCNC(=N)N)NC(=O)[C@H](CCCNC(=N)N)NC(=O)[C@H](CCCCNC(=O)COCCOCCOCCOCCNC(=O)CCCc1ccc(C)cc1)NC(=O)CCNC(=O)CCNC(=O)CCNC(=O)CN1CCN(CC(=O)O)CCN(CC(=O)O)CCN(CC(=O)O)CC1)C(=O)N[C@@H](CC(C)C)C(=O)O [[^177Lu]Lu-DT14D, metal not drawn] ({DOTA-βAla-βAla-βAla}-K(X1)RRPYIL-OH) , thanks.
[A] 4.65
